Recorded growth, one value per entry.
- System: UACC-62 melanoma
- TEST SUMMARY: NCI-60 one-dose screen, 48 h (100 = growth as untreated, 0 = no growth, -100 = all killed)
- CONDITION NOTES: 10 µM unless noted
- Procedure: Growth inhibition of the UACC-62 human tumor cell line is measured as a screen for anti-cancer activity. Cells are grown in 96 well plates and exposed to the test compound for 48 hours. Compounds are tested at a single concentration, which is 10^-5 M for most compounds. The reported endpoint is percent growth (GI% or GIPRCNT), where numbers from 0 - 100% represent growth inhibition, and numbers from -100% - 0 represent cell death. For example, a value of 40 represents 60% growth inhibition. […]
Compounds without any hit were thinned out: in the full panel of roughly 83,000, 20% have a hit.
Give your result in % as a bare value.

Past entries and their recorded results:
CCOP(=O)(CCN1CCN(CCCCCOc2cc3c(cc2OC)C(=O)N2CCC[C@H]2C=N3)CC1)OCC | 94.6
Nc1c(C(=O)Nc2ccccc2)sc2nc3c(cc12)CCCCC3 | 5.45
Cc1ccnc2nc(C(=O)OCC(=O)Nc3ccc(-c4ccccc4)cc3)nn12 | 116
O=S=Nc1ccc([N+](=O)[O-])cc1 | 73
Clc1ccc([I+]c2ccc(Cl)cc2Cl)c(Cl)c1 | 12.3

Okay, next one:
Please list growth recorded for the compound `COc1cc2nc(N3CCC[C@@H](NC4=CC(=O)c5ccccc5C4=O)C3)nc(N)c2cc1OC`
87.8

* * *

- System: 786-0 renal
- TEST SUMMARY: NCI-60 one-dose screen, 48 h (100 = growth as untreated, 0 = no growth, -100 = all killed)
- CONDITION NOTES: 10 µM unless noted
The panel holds about 83,000 compounds, 20% with a hit somewhere; the sample as a whole holds those more often.
QUANTITY NAME: growth (%)
Give your result in % as a bare value.

Past entries and their recorded results:
COc1cc(Br)c(OC)cc1Br | 105
COc1cccc(-c2nc3sccn3c2-c2ccnc(NCCNS(=O)(=O)c3ccccc3)n2)c1 | 56.7
CC[C@H](C)[C@@H]1NC(=O)[C@H]([C@@H](C)O)NC(=O)C(Cc2ccccc2)NC(=O)[C@@H]2CCCN2C(=O)C(C(C)C)NC(=O)C(Cc2ccccc2)NC(=O)CNC(=O)[C@@H]2CCCN2C1=O (stereo not given in full) | 39.9
O=c1[nH]c(-c2cn(-c3ccc(Cl)cc3)nn2)nc2ccccc12 | 31.9
COc1ccc(-c2cn[nH]c2-c2cc(OC)c3c(c2)OCO3)cc1 | 26

Okay, next one:
Please list growth recorded for the compound `NC(=O)NNC(=O)c1ccccc1`
101

* * *

- Tested on: HCT-116 colon
- TEST SUMMARY: NCI-60 one-dose screen, 48 h (100 = growth as untreated, 0 = no growth, -100 = all killed)
- CONDITION NOTES: 10 µM unless noted
This is part of a sample that, as a whole, favours compounds with a hit. Of some 83,000 tested, about 20% had one in any assay.
QUANTITY NAME: growth (%)
Give your result in % as a bare value.

Past entries and their recorded results:
CCN(CC)CCCC(C)N=c1cc(Nc2cc(=NC(C)CCCN(CC)CC)c3cc(OC)ccc3o2)oc2ccc(OC)cc12 (stereo unspecified) | -21.2
Cc1cccc(NC(=O)c2sc3nc4c(cc3c2N)CCCC4)c1 | 22.3
CCCCn1c(=O)c(C2CNC(=O)c3ccccc3N2)cc2ccccc21 (stereo unspecified) | 94.9
CCOC(=O)CC(C#N)(CC(=O)OCC)C(=O)OCC | 102

Please list growth recorded for the molecule `CCCCCCCCCCCCOB(OCCCCCCCCCCCC)OCCCCCCCCCCCC`
123

Please list growth recorded for the molecule `COc1ccc(Cl)cc1NC(N)=S`
102
